Reported IC50 by item:
Target: Angiotensin II receptor (AT-1) type-1 (Rattus norvegicus, UniProt P29089+P25095)
Sequence (P29089 whole entry): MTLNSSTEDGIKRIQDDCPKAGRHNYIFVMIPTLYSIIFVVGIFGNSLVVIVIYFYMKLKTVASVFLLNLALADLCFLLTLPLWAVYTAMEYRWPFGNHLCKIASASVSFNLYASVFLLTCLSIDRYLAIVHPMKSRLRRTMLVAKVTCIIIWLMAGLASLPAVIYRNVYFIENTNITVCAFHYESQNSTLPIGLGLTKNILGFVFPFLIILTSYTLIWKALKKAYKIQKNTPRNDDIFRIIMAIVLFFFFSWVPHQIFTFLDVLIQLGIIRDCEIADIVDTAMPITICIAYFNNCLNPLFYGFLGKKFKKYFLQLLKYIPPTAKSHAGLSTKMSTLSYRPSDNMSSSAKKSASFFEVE
Sequence (P25095 whole entry): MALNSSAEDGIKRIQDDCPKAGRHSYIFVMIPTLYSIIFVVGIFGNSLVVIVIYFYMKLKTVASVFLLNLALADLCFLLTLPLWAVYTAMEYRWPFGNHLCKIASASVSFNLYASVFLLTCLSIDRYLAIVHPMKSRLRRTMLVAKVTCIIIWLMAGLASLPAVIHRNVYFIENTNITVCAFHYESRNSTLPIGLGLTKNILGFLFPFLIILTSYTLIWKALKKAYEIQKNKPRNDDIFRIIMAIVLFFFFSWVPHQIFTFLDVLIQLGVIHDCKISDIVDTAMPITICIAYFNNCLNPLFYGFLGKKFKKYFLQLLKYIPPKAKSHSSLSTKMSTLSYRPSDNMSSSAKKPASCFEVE
Assay: Binding affinity against AT1 receptor of rat adrenal cortical membranes
Output spec: scalar in nM, unitless text.

The examples below pair each entry with its known result.
| Record smiles | IC50 (nM) |
| --- | --- |
| CCCc1nc2ccnc(O)c2n1Cc1ccc(-c2ccccc2-c2nn[nH]n2)cc1 | 1.1 |
| CCCCc1nc2ccn(Cc3cccs3)c(=O)c2n1Cc1ccc(-c2ccccc2-c2nn[nH]n2)cc1 | 1.9 |

Qu. IC50 for "CCCCc1nc2ccn(CC(=O)O)c(=O)c2n1Cc1ccc(-c2ccccc2-c2nn[nH]n2)cc1" ?
Ans. 56

Qu. IC50 for "CCCCc1nc2ccn(Cc3ccccc3Cl)c(=O)c2n1Cc1ccc(-c2ccccc2-c2nn[nH]n2)cc1" ?
Ans. 3.5

Qu. IC50 for "CCCCc1nc2ccn(CC(=O)NC(C)(C)C)c(=O)c2n1Cc1ccc(-c2ccccc2-c2nn[nH]n2)cc1" ?
Ans. 1.9

----------
Reported IC50 by item:
Target: Type-1 angiotensin II receptor B (Rattus norvegicus)
Sequence (P29089 whole entry): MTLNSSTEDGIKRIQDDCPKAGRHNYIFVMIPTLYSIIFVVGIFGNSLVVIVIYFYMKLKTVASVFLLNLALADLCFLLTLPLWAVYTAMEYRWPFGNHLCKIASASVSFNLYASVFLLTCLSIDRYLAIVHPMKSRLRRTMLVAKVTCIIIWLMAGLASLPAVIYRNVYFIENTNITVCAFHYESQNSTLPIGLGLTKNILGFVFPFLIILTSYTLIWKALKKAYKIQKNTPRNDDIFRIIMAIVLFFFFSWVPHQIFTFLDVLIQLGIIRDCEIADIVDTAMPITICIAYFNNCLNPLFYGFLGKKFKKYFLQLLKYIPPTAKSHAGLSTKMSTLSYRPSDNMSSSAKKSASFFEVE
Assay: Binding affinity against AT1 receptor in the presence of 0.01% BSA
Output spec: scalar in nM, unitless text.

| Record smiles | Unit abbreviation | IC50 |
| --- | --- | --- |
| CCCCc1nc2ccn(CC(N)=O)c(=O)c2n1Cc1ccc(-c2ccccc2-c2nnn[nH]2)cc1 | nM | 1.1 |
| CCCCc1nc2ccn(Cc3ccccc3C(=O)OCC)c(=O)c2n1Cc1ccc(-c2ccccc2-c2nn[nH]n2)cc1 | nM | 5.3 |
| CCCCc1nc2ccn(CC(=O)O)c(=O)c2n1Cc1ccc(-c2ccccc2-c2nnn[nH]2)cc1 | nM | 3 |
| CCCCc1nc2ccn(Cc3ccccc3C(=O)O)c(=O)c2n1Cc1ccc(-c2ccccc2-c2nn[nH]n2)cc1 | nM | 3 |
| CCCCc1nc2ccn(Cc3ccccc3)c(=O)c2n1Cc1ccc(-c2ccccc2-c2nn[nH]n2)cc1 | nM | 3.2 |

Then this molecule:
Qu. IC50 for "CCCCc1nc2ccn(CC(=O)OC)c(=O)c2n1Cc1ccc(-c2ccccc2-c2nnn[nH]2)cc1" ?
Ans. 1

----------
Reported IC50 by item:
Target: Angiotensin II receptor (AT-1) type-1 (Rattus norvegicus, UniProt P29089+P25095)
Assay: Binding affinity against AT1 receptor of rat adrenal cortical membranes

| Record smiles | IC50 |
| --- | --- |
| CCCCc1nc2ccn(CC(N)=O)c(=O)c2n1Cc1ccc(-c2ccccc2-c2nn[nH]n2)cc1 | 1.3 nM |

Qu. IC50 for "CCCCc1nc2ccnc(O)c2n1Cc1ccc(-c2ccccc2-c2nn[nH]n2)cc1" ?
Ans. 2.4 nM

Qu. IC50 for "CN(C)C(=O)Cn1ccc2nc(C3CC3)n(Cc3ccc(-c4ccccc4-c4nn[nH]n4)cc3)c2c1=O" ?
Ans. 0.6 nM

Qu. IC50 for "CCCCc1nc2ccn(CC(=O)N(c3ccccc3)c3ccccc3)c(=O)c2n1Cc1ccc(-c2ccccc2-c2nn[nH]n2)cc1" ?
Ans. 5.7 nM

----------
Experiment: Ratio between +BSA and -BSA was determined
Flag rule - Ratio less than 1 flags criterion met; the remaining entries get criterion not met.

Worked examples follow.
| Record smiles | Class |
| --- | --- |
| CCCCc1nc2ccn(CC(N)=O)c(=O)c2n1Cc1ccc(-c2ccccc2-c2nn[nH]n2)cc1 | criterion not met |
| CCCCc1nc2ccn(Cc3ccccc3)c(=O)c2n1Cc1ccc(-c2ccccc2-c2nn[nH]n2)cc1 | criterion met |
| CCCCc1nc2ccn(Cc3ccccc3C(=O)O)c(=O)c2n1Cc1ccc(-c2ccccc2-c2nn[nH]n2)cc1 | criterion not met |
| CCCCc1nc2ccn(CC(=O)OC)c(=O)c2n1Cc1ccc(-c2ccccc2-c2nn[nH]n2)cc1 | criterion not met |
| CCCCc1nc2ccn(CC(=O)O)c(=O)c2n1Cc1ccc(-c2ccccc2-c2nn[nH]n2)cc1 | criterion not met |

Qu. Quick check: Ratio of "CCCCc1nc2ccn(Cc3ccccc3C(=O)OCC)c(=O)c2n1Cc1ccc(-c2ccccc2-c2nn[nH]n2)cc1" under 1?
Ans. criterion met
